The measured values listed here are drawn from patent US6525001B1.

I'd appreciate it if you could supply Plant response rating, Rice values for the items below.
Tested on: rice (Oryza sativa)
Test: Test B flood test
Assay type: in vivo
Conditions: Rate 500 g/ha, Postemergence (flood test species)
Numbers only.

compound: Cc1cnc(-c2ccc(C(F)(F)F)cc2)nc1Cn1nc(C(F)(F)F)cc1C [Compound 13]
systemTested: rice (Oryza sativa)
Plant response rating, Rice: 1

Batch of 3 compounds: report Plant response rating, Rice for each.
1. Cc1cnc(-c2ccc(C(F)(F)F)cc2)nc1Cc1cccc(C#N)c1 [Compound 32]
2. Cc1cnc(-c2ccc(C(F)(F)F)cc2)nc1C(=O)c1cccc(C(F)(F)F)c1 [Compound 73]
3. Cc1cnc(-n2cnc(C(F)(F)F)n2)nc1C(=O)c1cccc(OC(F)(F)F)c1 [Compound 64]

Return:
1. 2
2. 3
3. 3
